B1: library; numbered along this chain (parent)
chain: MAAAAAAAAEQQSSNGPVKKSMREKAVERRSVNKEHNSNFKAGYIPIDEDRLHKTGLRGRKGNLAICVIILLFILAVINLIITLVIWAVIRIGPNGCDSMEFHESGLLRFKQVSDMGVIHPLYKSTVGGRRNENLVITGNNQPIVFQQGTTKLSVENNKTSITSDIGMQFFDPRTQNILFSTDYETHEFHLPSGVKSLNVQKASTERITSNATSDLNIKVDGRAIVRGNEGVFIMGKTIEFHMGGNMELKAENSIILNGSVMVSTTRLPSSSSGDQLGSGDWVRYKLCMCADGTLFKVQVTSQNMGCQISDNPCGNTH

variants of: B1; assay: SGCB cell-surface expression functional score (HA stain, bin4 vs bin1, normalised to synonymous) (log10 ratio); higher = more cell-surface SGCB (functional)
Lab note: compare SGCB cell-surface expression functional score (log10) against 0.1. Equal or greater, write Yes. Smaller, write No.

Past entries and their recorded results:
{"columns": ["Mutation string", "Group"],
 "data": [
  ["G315Y", "Yes"],
  ["V145N", "No"]
]}

Problem: Decide: is the reported value of SGCB cell-surface expression functional score (log10) for Q176V equal to or greater than 0.1?
Solution: No

Problem: Follow-up entry: R51W
Solution: Yes

Problem: Now consider H36L and answer again.
Solution: No

Problem: Continue with L107Y
Solution: No

Problem: Another variant: S13M
Solution: Yes

Problem: Entry to check: T150P
Solution: No

Problem: Lookup G231T
Solution: No
